System: RXF 393 renal
Experiment: NCI-60 one-dose screen, 48 h
Settings: 10 µM unless noted
This is part of a sample that, as a whole, favours compounds with a hit. Of some 83,000 tested, about 20% had one in any assay. The source made the active and inactive calls. The calls were made as follows: active = growth percent below 10; inactive = the rest.
Pick from active, inactive when you respond.

Reference set, count: 3
Compound	Assayed target	Assigned label
Cc1nc(Cl)c2c(n1)N(C)c1ccc(Cl)cc1C(C)C2 (stereo unspecified)	RXF 393 renal	inactive
COc1c(B(O)O)cccc1-c1nc2ccc3[nH]ncc3c2c2c1CCC2	RXF 393 renal	active
CCN(CC)CCCC(C)Nc1c2ccc(C)cc2nc2ccc(OC)cc12 (stereo unspecified)	RXF 393 renal	inactive

For `N#C/C(=C(/O)CCCO)c1nc2ccccc2c(=O)[nH]1` , which call appears in the assay record? inactive

For `COc1cc(OC)cc(C(=O)Nc2cc(-c3cccnc3)nc(NCCCN3CCOCC3)n2)c1` , which call appears in the assay record? inactive

For `CNc1cc(C(=O)O)nc(NC)n1` , which call appears in the assay record? inactive

* * *

Tested on: SF-295 CNS
Experiment: NCI-60 one-dose screen, 48 h
Conditions: 10 µM unless noted
Compounds without any hit were thinned out: in the full panel of roughly 83,000, 20% have a hit. Activity calls are given as the source filed them. The calls were made as follows: active = growth percent below 10; inactive = the rest.
Pick from 1 = active, -1 = inactive when you respond.

Reference set, count: 5
Compound	Assayed target	Assigned label
Cc1c(Cn2cc(COc3ccc(Br)cc3)nn2)c(C)c(Cn2cc(COc3ccc(Br)cc3)nn2)c(C)c1Cn1cc(COc2ccc(Br)cc2)nn1	SF-295 CNS	-1
CCOc1cc(/C=N\NC(=O)N/N=C/c2ccc(O)c(OCC)c2)ccc1O	SF-295 CNS	-1
Oc1c(CNCCNCc2cc(Cl)cc(Cc3ccccc3)c2O)cc(Cl)cc1Cc1ccccc1	SF-295 CNS	1
O=S(=O)(NCc1ccccc1)c1ncnc2nc[nH]c12	SF-295 CNS	-1
CC(C)[C@H]1CCC2=C3CC[C@]45OC(=O)[C@@]6(CCC(C)(C)C[C@H]64)CC[C@@]5(C)[C@]3(C)CC[C@@]21C	SF-295 CNS	-1

For `CC1(C)NCCC[C@]2(C)[C@H]3C=CC4=C5C[C@](C)(CO)CC[C@]5(C)CC[C@@]4(C)[C@]3(C)CC[C@@H]12` , which call appears in the assay record? 1

For `CC(C)OC(=O)Nc1cc(F)c(F)cc1F` , which call appears in the assay record? -1

For CC1Cc2c(ncnc2-n2cnc3ccccc32)N(C)c2ccccc21 (stereo unspecified) , which call appears in the assay record? -1

* * *

Test system: T-47D breast
Experiment: NCI-60 one-dose screen, 48 h
Details: 10 µM unless noted
About 83,000 compounds went through this panel and 20% of them were active in at least one assay; those are over-represented in the sample as a whole. Active and inactive are the calls of the source. How the source made its calls: active means growth percent below 10; inactive means the rest.
Pick from active, inactive when you respond.

Molecule	Assigned label
CC(=O)OC[C@]12CC[C@@H]([C@@H](C)C(N)=O)[C@@H]1[C@H]1CC[C@@H]3[C@@]4(C)CC[C@H](OC(C)=O)C(C)(C)[C@@H]4CC[C@@]3(C)[C@]1(C)CC2	active

For `COc1ccc(C(=O)CSc2nnc(-c3cc(-c4ccccc4)nc4ccccc34)o2)cc1` , which call appears in the assay record? inactive

For CCN(CCNc1ccc(C)c2sc3cc(Cl)ccc3c(=O)c12)CC(C)O (stereo unspecified) , which call appears in the assay record? inactive

For `Cc1ccc(-c2cn(C/C=C3\C=CN(S(=O)(=O)c4ccccc4)CC3)nn2)cc1` , which call appears in the assay record? inactive

For CC1Cc2c(Cl)ncnc2N(C)c2ccc(O)cc21 (stereo unspecified) , which call appears in the assay record? inactive

For `COC(=O)[C@H](CC(C)C)NC(=O)NC(=O)NC(=O)CI` , which call appears in the assay record? inactive
